Hello, the source for this data is paper PMC12064818, in case you need it.

Test target: FLuc-C-NLuc (firefly luciferase) (Photinus pyralis, UniProt P08659, form not given/L550V)
Sequence (P08659 2-550 L550V, form open): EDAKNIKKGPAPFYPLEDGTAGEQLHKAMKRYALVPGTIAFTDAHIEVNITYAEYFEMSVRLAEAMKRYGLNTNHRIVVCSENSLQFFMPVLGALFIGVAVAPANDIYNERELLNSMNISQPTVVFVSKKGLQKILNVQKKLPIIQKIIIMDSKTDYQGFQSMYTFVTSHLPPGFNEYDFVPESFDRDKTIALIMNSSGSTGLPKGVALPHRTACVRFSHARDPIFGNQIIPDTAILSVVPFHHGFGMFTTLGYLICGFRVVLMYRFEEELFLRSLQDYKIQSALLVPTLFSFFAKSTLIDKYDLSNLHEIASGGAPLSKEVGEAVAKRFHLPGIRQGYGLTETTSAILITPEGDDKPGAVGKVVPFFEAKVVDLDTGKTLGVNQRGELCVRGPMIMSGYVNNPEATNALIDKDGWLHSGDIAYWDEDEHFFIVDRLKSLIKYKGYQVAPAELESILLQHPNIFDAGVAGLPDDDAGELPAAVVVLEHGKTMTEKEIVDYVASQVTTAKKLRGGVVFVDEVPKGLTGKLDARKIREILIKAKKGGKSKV
Experiment description: SDR assay, FLuc-C-NLuc
Study conditions: 1 nM FLuc-C-NLuc; normalized activity; Log [Compound], M -4.48
Reported SDR No ATP values are given for each entry in this list.
Quantity kind: SDR No ATP

> print(dat)
                                  molecule  readout.number
1  COc1ccc(-c2nc(-c3ccc(C(=O)O)cc3)no2)cc1            29.4
2    CNC(=O)c1cccc2c1CCN2C(=O)Nc1ccc(C)cc1            30.5
3     Cc1ccc(-n2ncc3c(N4CCCCCC4)ncnc32)cc1            30.7

====

Test target: FLuc-C-HiBiT (Photinus pyralis)
Construct: firefly luciferase with C-terminal HiBiT tag, E. coli expressed
Sequence (P08659 whole entry, looked up): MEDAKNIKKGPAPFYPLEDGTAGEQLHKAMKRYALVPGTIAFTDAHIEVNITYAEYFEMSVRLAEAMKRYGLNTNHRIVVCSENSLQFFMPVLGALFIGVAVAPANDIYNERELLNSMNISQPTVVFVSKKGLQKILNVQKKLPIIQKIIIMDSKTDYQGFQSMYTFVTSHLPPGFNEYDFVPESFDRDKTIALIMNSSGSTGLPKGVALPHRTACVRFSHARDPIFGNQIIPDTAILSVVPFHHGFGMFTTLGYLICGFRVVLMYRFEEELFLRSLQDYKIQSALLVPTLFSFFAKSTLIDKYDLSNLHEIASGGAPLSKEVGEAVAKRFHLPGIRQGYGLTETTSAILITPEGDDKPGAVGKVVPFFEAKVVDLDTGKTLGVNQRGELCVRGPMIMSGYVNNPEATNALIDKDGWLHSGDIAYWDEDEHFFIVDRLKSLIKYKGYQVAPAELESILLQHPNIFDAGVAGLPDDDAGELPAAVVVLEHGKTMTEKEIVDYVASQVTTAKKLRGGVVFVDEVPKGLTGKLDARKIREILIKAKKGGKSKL
Experiment description: biochemical
Study conditions: enzyme activity, 10 uM ATP; read-out: IC50 or SDR50 (mM) / FLuc E
Quantity kind: IC50 (mM)

> print(dat)
                                   compound  readout.number
1  OCc1ccnc(-c2ccc(-c3ccn[nH]3)cc2)c1 [NCGC00444969-01]         0.00989
2  CC(=O)NC1(C)CCN(Cc2cccc(-c3ccc4c(ccn4C)c3)c2)C1 (stereo not shown) [NCGC00410415-01]          0.0101
3  Cc1noc(-c2cccn3c(CNC(=O)c4ccc(C(C)(C)C)cc4)nnc23)n1 [NCGC00457512-01]         0.00989
4  CC(C)c1ccc(C(=O)Nc2cccc3cccnc23)cc1 [NCGC00103193-01]         0.00989

====

Test target: FLuc-C-HiBiT (Photinus pyralis)
Construct: firefly luciferase with C-terminal HiBiT tag, E. coli expressed
Experiment description: biochemical
Study conditions: enzyme activity, 10 uM ATP; read-out: IC50 or SDR50 (mM) / FLuc E
Quantity kind: IC50

> print(dat)
                                    compound                      test.target  quantity.kind       result
 1  COc1ccc(C(=O)NCC2Cc3cc(C)cc(-c4nc5ccccc5s4)c3O2)c(OC)c1OC (stereo not shown)  FLuc-C-HiBiT (Photinus pyralis)           IC50    > 0.03 mM
 2  COc1ccc(C(=O)Nc2ccccc2-c2nc3ccccc3s2)c(OC)c1  FLuc-C-HiBiT (Photinus pyralis)           IC50    > 0.03 mM
 3   Cc1ccc2oc(=O)c(-c3nc(-c4cccs4)no3)cc2c1  FLuc-C-HiBiT (Photinus pyralis)           IC50    > 0.03 mM
 4  O=C(Nc1ccc(F)c(Cl)c1)C1CCN(C(=O)c2ncn3c2COC(c2ccccc2)C3)CC1 (stereo not shown)  FLuc-C-HiBiT (Photinus pyralis)           IC50  0.000989 mM
 5  Cc1ccc2oc(C(=O)Nc3cccc(-c4nc5ccccc5s4)c3)c(C)c2c1  FLuc-C-HiBiT (Photinus pyralis)           IC50   0.00989 mM
 6  Nc1nc(=O)c2[nH]c(=O)n(C3OC(CO)C(O)C3O)c2[nH]1 (stereo not shown)  FLuc-C-HiBiT (Photinus pyralis)           IC50    > 0.03 mM
 7  COc1ccc(C(=O)N2CCCC(c3nc(-c4ccccc4)no3)CCNC(=O)CC2)c(OC)n1 (stereo not shown)  FLuc-C-HiBiT (Photinus pyralis)           IC50    0.0111 mM
 8  N#Cc1ccc(C(=O)Nc2ccccc2-c2nc3ccccc3s2)c(F)c1  FLuc-C-HiBiT (Photinus pyralis)           IC50    > 0.03 mM
 9  CN1CCC(NC(=O)C(C)(C)Oc2nn(Cc3ncccn3)c3ccccc23)CC1  FLuc-C-HiBiT (Photinus pyralis)           IC50    > 0.03 mM
10    O=c1oc2c(CN3CCCC3)c(O)ccc2cc1-c1ccccc1  FLuc-C-HiBiT (Photinus pyralis)           IC50    > 0.03 mM
